Measured remaining activity at 10 µM, listed per entry.
Molecular target: UniProt P27487
Assay: Action of effectors on the DP IV-catalysed hydrolysis of H-Gly-Pro-pNA
Assay type: biochemical
Settings: 10 μM effector; 0.4 mM H-Gly-Pro-pNA, 30° C., pH 7.6, ionic strength 0.125; read-out: % Residual activity of DP IV in the presence of 10 μM effector
Give the quantity in %, number only.

Compound	System name	Measurement unit	remaining activity at 10 µM
NC(Cc1c[nH]cn1)C(=O)N1CCSC1 (stereo not drawn) [H-His-thiazolidide]	UniProt P27487	%	35.2
COc1ccc(Cl)cc1C(=O)NCCc1ccc(S(=O)(=O)NC(=O)NC2CCCCC2)cc1 [glibenclamide, reference compound]	UniProt P27487	%	100
NC(CC(=O)NO)C(=O)N1CCCC1 (stereo not drawn) [H-Asp(NHOH)-pyrrolidide]	UniProt P27487	%	88.2
NC(CCC(=O)O)C(=O)N1CCSC1 (stereo not drawn) [H-Glu-thiazolidide]	UniProt P27487	%	25
NC(=O)CC(N)C(=O)N1CCSC1 (stereo not drawn) [H-Asn-thiazolidide]	UniProt P27487	%	47.2

Please turn your attention to the following entry.
Q. Could you share which remaining activity at 10 µM value was measured for CN(C)C(=N)N=C(N)N [metformin, reference compound] ?
A. 100

---

Observed Ki for dipeptidyl peptidase IV (Homo sapiens, UniProt P27487), reported per entry below.

Example entries and their recorded answers appear below.
Compound	Ki
NC(CCC(=O)O)C(=O)N1CCSC1 (stereo not shown) [H-Glu-thiazolidide]	0.61 µM
C[C@H]1O[C@H](O[C@H]2[C@H](O)[C@@H](O)[C@@H](O[C@H]3[C@H](O)[C@@H](O)C(O)O[C@@H]3CO)O[C@@H]2CO)[C@H](O)[C@@H](O)[C@@H]1N[C@H]1C=C(CO)[C@@H](O)[C@H](O)[C@H]1O (stereo partly shown) [acarbose, reference compound]	> 1000 µM

Q. Notebook: pull reported Ki for dipeptidyl peptidase IV (Homo sapiens, UniProt P27487), entry CC(C)C(N)C(=O)N1CCSC1 (stereo not shown) [H-Val-thiazolidide]
A. 0.27 µM

Q. Notebook: pull reported Ki for dipeptidyl peptidase IV (Homo sapiens, UniProt P27487), entry NC(CCC(=O)NO)C(=O)N1CCCC1 (stereo not shown) [H-Glu(NHOH)-pyrrolidide]
A. 2.8 µM

Q. Notebook: pull reported Ki for dipeptidyl peptidase IV (Homo sapiens, UniProt P27487), entry CN(C)C(=N)N=C(N)N [metformin, reference compound]
A. > 1000 µM

Q. Notebook: pull reported Ki for dipeptidyl peptidase IV (Homo sapiens, UniProt P27487), entry NC(CC(=O)NO)C(=O)N1CCCC1 (stereo not shown) [H-Asp(NHOH)-pyrrolidide]
A. 13 µM

---

Target: dipeptidyl peptidase IV (Homo sapiens)
Sequence (P27487 whole entry, species assumed): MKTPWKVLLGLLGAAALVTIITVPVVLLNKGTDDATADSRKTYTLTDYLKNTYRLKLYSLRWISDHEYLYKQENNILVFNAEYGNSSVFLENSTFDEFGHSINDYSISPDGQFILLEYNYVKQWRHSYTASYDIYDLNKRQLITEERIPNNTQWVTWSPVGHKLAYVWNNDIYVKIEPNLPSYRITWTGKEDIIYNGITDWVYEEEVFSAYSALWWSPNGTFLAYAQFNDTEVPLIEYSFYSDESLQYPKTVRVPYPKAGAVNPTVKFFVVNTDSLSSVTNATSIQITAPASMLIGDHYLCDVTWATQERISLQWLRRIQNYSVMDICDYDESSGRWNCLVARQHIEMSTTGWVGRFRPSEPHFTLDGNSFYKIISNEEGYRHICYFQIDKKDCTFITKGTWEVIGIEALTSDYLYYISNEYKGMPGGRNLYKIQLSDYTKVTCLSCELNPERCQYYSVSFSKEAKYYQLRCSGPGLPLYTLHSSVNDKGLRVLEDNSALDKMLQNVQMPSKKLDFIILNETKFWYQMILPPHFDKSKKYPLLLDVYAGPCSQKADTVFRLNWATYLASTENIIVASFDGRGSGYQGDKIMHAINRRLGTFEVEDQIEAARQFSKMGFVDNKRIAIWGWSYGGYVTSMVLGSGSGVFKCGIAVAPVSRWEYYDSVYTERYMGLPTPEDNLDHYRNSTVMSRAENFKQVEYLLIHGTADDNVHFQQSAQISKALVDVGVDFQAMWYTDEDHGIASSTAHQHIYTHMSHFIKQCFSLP
Measured Ki, listed per entry.
Give the quantity in µM, number only.

Compound	System name	Metric	Test result
NC(=O)CC(N)C(=O)N1CCCC1 (stereo not shown) [H-Asn-pyrrolidide]	dipeptidyl peptidase IV (Homo sapiens)	Ki	12
NC(CCC(=O)NO)C(=O)N1CCSC1 (stereo not shown) [H-Glu(NHOH)-thiazolidide]	dipeptidyl peptidase IV (Homo sapiens)	Ki	1.7
NC(=O)CC(N)C(=O)N1CCSC1 (stereo not shown) [H-Asn-thiazolidide]	dipeptidyl peptidase IV (Homo sapiens)	Ki	3.5
NC(CC(=O)NO)C(=O)N1CCSC1 (stereo not shown) [H-Asp(NHOH)-thiazolidide]	dipeptidyl peptidase IV (Homo sapiens)	Ki	8.8
NC(CC(=O)O)C(=O)N1CCCC1 (stereo not shown) [H-Asp-pyrrolidide]	dipeptidyl peptidase IV (Homo sapiens)	Ki	14
CC[C@H](C)[C@H](N)C(=O)N1CC1 [H-Ile-azididide]	dipeptidyl peptidase IV (Homo sapiens)	Ki	3.1
NC(Cc1c[nH]cn1)C(=O)N1CCCC1 (stereo not shown) [H-His-pyrrolidide]	dipeptidyl peptidase IV (Homo sapiens)	Ki	3.5
NC(CC(=O)O)C(=O)N1CCSC1 (stereo not shown) [H-Asp-thiazolidide]	dipeptidyl peptidase IV (Homo sapiens)	Ki	2.9

Please turn your attention to the following entry.
Q. Could you share which Ki value was measured for NC(Cc1c[nH]cn1)C(=O)N1CCSC1 (stereo not shown) [H-His-thiazolidide] ?
A. 1.8
